- method.description: endothelial E-selectin expression blockers – imaging, HUVEC, immunofluorescence, MLSMR starter and 10KST1 sets, primary screen (AID 487);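 also: 100% = median nuclei count of all wells on the same plate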
- condition.notes: HUVEC TNFalpha-induced E-selectin immunofluorescence imaging, at 2 µM; measured here: cell number, toxicity
property: nuclei count (%)

{"compound": "CC1(C)CC(=O)C(CC2=C(O)CC(C)(C)CC2=O)=C(O)C1", "property": "nuclei count", "measurement.unit": "%", "endpoint.result": 112}
{"compound": "O=C(CSc1nnc2ccccn12)c1ccccc1", "property": "nuclei count", "measurement.unit": "%", "endpoint.result": 70.9}
{"compound": "CCCC1(C(=O)OC)NC(c2cc(OC)c(OC)c(OC)c2)C2C(=O)N(CC)C(=O)C21 (stereo unspecified)", "property": "nuclei count", "measurement.unit": "%", "endpoint.result": 110}
{"compound": "CC(CCc1ccccc1)NC(=O)CSc1nc(N)cc(N)n1 (stereo unspecified)", "property": "nuclei count", "measurement.unit": "%", "endpoint.result": 99.2}
{"compound": "S=c1[nH]ncn1-c1ccccn1", "property": "nuclei count", "measurement.unit": "%", "endpoint.result": 109}
{"compound": "CC(C)CCNC(=O)C(C)N(Cc1ccc(F)cc1)C(=O)c1ccc(CN2CCCCC2)o1 (stereo unspecified)", "property": "nuclei count", "measurement.unit": "%", "endpoint.result": 106}
{"compound": "Nc1nc2n(n1)C(c1cccc(Br)c1)CC(c1ccccc1)N2 (stereo unspecified)", "property": "nuclei count", "measurement.unit": "%", "endpoint.result": 111}
{"compound": "CC(=O)Oc1ccc(-c2ccc(C(=O)O)cc2)cc1", "property": "nuclei count", "measurement.unit": "%", "endpoint.result": 102}
{"compound": "Cn1c(=O)c2c(nc(SCCCC#N)n2Cc2ccccc2F)n(C)c1=O", "property": "nuclei count", "measurement.unit": "%", "endpoint.result": 119}
{"compound": "COc1ccc(-c2noc(CCN3C(=O)c4ccccc4C3=O)n2)cc1OC", "property": "nuclei count", "measurement.unit": "%", "endpoint.result": 104}
{"compound": "Cc1ccc2c(c1)C1CCCC3C1N2CC(=O)N3Cc1ccccc1 (stereo unspecified)", "property": "nuclei count", "measurement.unit": "%", "endpoint.result": 131}

---

Some compounds, each annotated with its measured inhibition.
- method.description: inhibitors of TNFa-induced NFkB p65 translocation, primary screen, imaging, HUVEC, MLSMR starter and 10KST1 sets (AID 438);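 also: compound added about 3h40 before a 20 min TNFalpha stimulation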;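 as to inhibition: signal is the nuclear over cytoplasmic p65 intensity ratio per well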
- condition.notes: HUVEC TNFa-induced p65 nuclear translocation; at 2 µM, stronger effect = higher value, 0% TNFa-plus-vehicle, 100% no-TNFa wells
Activity calls are given as the source filed them.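 How the source made its calls: active means inhibition above 20% together with a positive visual image hit; inconclusive means visual image hit but inhibition not above 20%; inactive means no visual image hit.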
property: inhibition

{"compound": "COCc1ccccc1Cn1cnc2c1c(=O)n(C)c(=O)n2C", "property": "inhibition", "endpoint.result": "2% (inactive)"}
{"compound": "CCOc1cc(C(=O)N(C)c2ccccc2)cc(OCC)c1OCC", "property": "inhibition", "endpoint.result": "5.5% (inactive)"}
{"compound": "COc1ccc(-c2cc3c(=O)n(CC(=O)NC4CCN(Cc5ccccc5)CC4)ncn3n2)cc1", "property": "inhibition", "endpoint.result": "2.8% (inactive)"}
{"compound": "CCC(C)(C(=O)NC1CCCCC1)N(CC1CCCO1)C(=O)c1ccccn1 (stereo unspecified)", "property": "inhibition", "endpoint.result": "3% (inactive)"}
{"compound": "COc1ccc(CCNc2oc(COc3ccccc3Cl)nc2C#N)cc1OC", "property": "inhibition", "endpoint.result": "0.3% (inactive)"}
{"compound": "C/C=C(\\C)c1nnc(NC(=O)C(C)C)s1", "property": "inhibition", "endpoint.result": "-29% (inactive)"}
{"compound": "CCn1nccc1C(=O)Nc1cc(Cl)ccc1Cl", "property": "inhibition", "endpoint.result": "8.3% (inactive)"}
{"compound": "Cc1ccccc1C(=O)NC1CCN(Cc2nnnn2CCc2ccccc2)CC1", "property": "inhibition", "endpoint.result": "-10.4% (inactive)"}
{"compound": "CCN1CCN(S(=O)(=O)Cc2ccccc2)CC1", "property": "inhibition", "endpoint.result": "-2.4% (inactive)"}
{"compound": "Cc1cccc(NC(=O)CSc2nnc(-c3cc(C)n(-c4ccccc4)c3C)o2)c1C", "property": "inhibition", "endpoint.result": "-16.6% (inactive)"}
{"compound": "CCN1CCN(c2ncnc3c2cnn3-c2ccc(C)cc2C)CC1", "property": "inhibition", "endpoint.result": "1.3% (inactive)"}

---

Some molecules, each annotated with its measured nuclei count.
- method.description: endothelial E-selectin expression blockers – imaging, HUVEC, immunofluorescence, MLSMR starter and 10KST1 sets, primary screen (AID 487);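 also: 100% = median nuclei count of all wells on the same plate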
- condition.notes: HUVEC TNFalpha-induced E-selectin immunofluorescence imaging, at 2 µM; measured here: cell number, toxicity

{"molecule": "O=C1C(c2ccncc2)=C(O)c2ccccc21", "nuclei count [%]": 91.1}
{"molecule": "Cc1nnc(NC(=O)c2ccco2)s1", "nuclei count [%]": 110}
{"molecule": "CCOC(=O)C(C(C)=O)c1nc(C)nc2c1nnn2Cc1ccccc1Cl (stereo not drawn)", "nuclei count [%]": 106}
{"molecule": "COc1ccc(Cn2nnnc2C(c2cccs2)N2CCOCC2)cc1 (stereo not drawn)", "nuclei count [%]": 114}
{"molecule": "CCOC(=O)N1CCC(Nc2ncnc3c2cnn3-c2ccc(C)cc2C)CC1", "nuclei count [%]": 124}
{"molecule": "Cc1cc(C)nc(N2CCC(C(=O)NC3CCCCCC3)CC2)n1", "nuclei count [%]": 90.5}
{"molecule": "CCn1c(=O)cc(OCC(=O)Nc2nc(C)cs2)c2ccccc21", "nuclei count [%]": 125}
{"molecule": "Cc1ccc(-n2ncc3c(=O)[nH]c(SCC(=O)N4CCN(c5ccccc5)CC4)nc32)cc1", "nuclei count [%]": 118}
{"molecule": "CCc1nnc2c3cnn(-c4ccccc4)c3ncn12", "nuclei count [%]": 125}
{"molecule": "COCCNC(=O)C(c1ccncc1)N(C(=O)Cn1nnc2ccccc21)c1ccc(OC)cc1 (stereo not drawn)", "nuclei count [%]": 99.8}
{"molecule": "COc1ccccc1Nc1ccc(C(=O)NC2CCCCC2)cn1", "nuclei count [%]": 110}
{"molecule": "CC(=O)N1CCN(c2ccc(S(=O)(=O)N3CCCCC3)cn2)CC1", "nuclei count [%]": 132}
{"molecule": "Cn1c(=O)[nH]c(=O)c2c1nc(Br)n2Cc1ccccc1F", "nuclei count [%]": 106}
{"molecule": "CCOc1ccc2nc(NC(=O)CSc3nnnn3C3CCCCC3)sc2c1", "nuclei count [%]": 92.8}
{"molecule": "O=C1CC(N2CCN(c3ccc(Cl)c(Cl)c3)CC2)C(=O)N1 (stereo not drawn)", "nuclei count [%]": 98.6}
{"molecule": "CCCCn1c(=O)[nH]c(=O)c2c1nc(COc1ccc(C#N)cc1)n2CCC", "nuclei count [%]": 110}
{"molecule": "Cn1c(SCC(N)=O)nnc1C1CCN(C(=O)NCc2ccccc2)CC1", "nuclei count [%]": 108}
{"molecule": "CN(CC(=O)N1CCCc2c1c(=O)oc1ccc(O)cc21)Cc1ccccc1", "nuclei count [%]": 117}
{"molecule": "O=C(NCc1nnc(SCC(=O)N2CCC(Cc3ccccc3)CC2)o1)c1ccccc1F", "nuclei count [%]": 110}
{"molecule": "COC(=O)CN1C(=O)C(O)(CC(=O)c2ccc(Cl)cc2)c2ccccc21 (stereo not drawn)", "nuclei count [%]": 102}
{"molecule": "CCOc1ccc(NC(=O)C2CC(=O)N(C(C)C)C2)cc1 (stereo not drawn)", "nuclei count [%]": 96.8}
{"molecule": "COc1cccc(C(=O)Nc2ncc3c(n2)CC(C)CC3=O)c1 (stereo not drawn)", "nuclei count [%]": 88.1}
{"molecule": "Nc1c(C(=O)NCCN2CCOCC2)c2nc3ccccc3nc2n1-c1ccc2c(c1)OCO2", "nuclei count [%]": 74}

---

- method.description: inhibitors of TNFa-induced NFkB p65 translocation, primary screen, imaging, HUVEC, MLSMR starter and 10KST1 sets (AID 438);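 also: compound added about 3h40 before a 20 min TNFalpha stimulation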
- condition.notes: HUVEC TNFa-induced p65 nuclear translocation; measured here: nuclei count (cytotoxicity indicator), at 2.08 µM
Response key: rule met means cell count >= 400; rule not met means cell count < 400.

{"molecule": "CCSC1=C(C#N)C(c2ccccc2OC)CC(=O)N1 (stereo unspecified)", "qualitative.label": "rule met"}
{"molecule": "COc1ccc(Cc2nc(-c3ccc(NC(=O)c4cccnc4)cc3)no2)cc1", "qualitative.label": "rule met"}
{"molecule": "Cc1sc2nc(CN3CCN(S(=O)(=O)c4cccc5nonc45)CC3)[nH]c(=O)c2c1C", "qualitative.label": "rule met"}
{"molecule": "CC(=O)c1c(C)nn(C(C)CC(=O)O)c1C (stereo unspecified)", "qualitative.label": "rule met"}
{"molecule": "COc1ccc(S(=O)(=O)N2CCC(C(=O)NCc3ccco3)CC2)cc1", "qualitative.label": "rule not met"}
{"molecule": "COCCn1nnnc1C(C(C)C)N1CCN(C(=O)c2ccco2)CC1 (stereo unspecified)", "qualitative.label": "rule not met"}
{"molecule": "O=C(Nc1cccnc1)c1cccc(NC(=O)c2ccco2)c1", "qualitative.label": "rule not met"}
{"molecule": "CCn1c(SCc2cccc(C(F)(F)F)c2)nnc1-c1ccco1", "qualitative.label": "rule met"}
{"molecule": "CC(C)CNc1oc(-c2ccc(F)cc2)nc1C#N", "qualitative.label": "rule met"}
{"molecule": "NC(=O)CSc1nnc(-c2cc3ccccc3o2)n1Cc1ccccc1", "qualitative.label": "rule met"}
